Here, each record is paired with measured log10(AUC) data.
# assay: Area under the curve determinations of plasma levels in rats (rrAUC), oral 10 mg/kg
# Format: in vivo
# condition_summary: rat, plasma 0.5-6 h post-dosing, read-out: RR AUC (rapid rat AUC, rrAUC)
Note: values are log10 of AUC expressed in µM·h.

>  <compound>
COCCN1CCc2oc([C@]3(CN4Cc5ccc(OC)cc5C4=O)NC(=O)NC3=O)cc2C1

>  <log10(AUC)>
-0.56

$$$$
>  <compound>
CCCn1cc(-c2ccc3oc([C@]4(CN5Cc6ccc(OC)cc6C5=O)NC(=O)NC4=O)cc3n2)cn1

>  <log10(AUC)>
-0.49

$$$$
>  <compound>
COc1ccc2c(c1)C(=O)N(C[C@@]1(c3cc4nc(-c5cccnc5)ccc4o3)NC(=O)NC1=O)C2

>  <log10(AUC)>
0.49

$$$$
>  <compound>
CCN1CCN(c2ccc3oc([C@]4(CN5Cc6ccc(OC)cc6C5=O)NC(=O)NC4=O)cc3n2)CC1

>  <log10(AUC)>
-0.14

$$$$
>  <compound>
COc1ccc2c(c1)C(=O)N(C[C@@]1(c3cc4nc(N5CC(C)NC(C)C5)ccc4o3)NC(=O)NC1=O)C2 (stereo partly drawn)

>  <log10(AUC)>
0.72

$$$$

Which log10(AUC) value belongs to COc1ccc2c(c1)C(=O)N(C[C@@]1(c3cc4nc(N5C[C@H](O)CC5=O)ccc4o3)NC(=O)NC1=O)C2 ? 0.08

Which log10(AUC) value belongs to COc1ccc2c(c1)C(=O)N(C[C@@]1(c3cc4cc(-c5ccncc5)cnc4o3)NC(=O)NC1=O)C2 ? -0.28

Which log10(AUC) value belongs to COc1ccc2c(c1)C(=O)N(C[C@@]1(c3cc4nc(-n5nc(N)cc5C)ccc4o3)NC(=O)NC1=O)C2 ? -0.28

Which log10(AUC) value belongs to COc1ccc2c(c1)C(=O)N(C[C@@]1(c3cc4cnc(N5CCNC5=O)cc4o3)NC(=O)NC1=O)C2 ? 0.07
